Molecular target: recombinant HPK1 protein (Homo sapiens, UniProt Q92918)
Sequence (Q92918 1-346 limits assumed): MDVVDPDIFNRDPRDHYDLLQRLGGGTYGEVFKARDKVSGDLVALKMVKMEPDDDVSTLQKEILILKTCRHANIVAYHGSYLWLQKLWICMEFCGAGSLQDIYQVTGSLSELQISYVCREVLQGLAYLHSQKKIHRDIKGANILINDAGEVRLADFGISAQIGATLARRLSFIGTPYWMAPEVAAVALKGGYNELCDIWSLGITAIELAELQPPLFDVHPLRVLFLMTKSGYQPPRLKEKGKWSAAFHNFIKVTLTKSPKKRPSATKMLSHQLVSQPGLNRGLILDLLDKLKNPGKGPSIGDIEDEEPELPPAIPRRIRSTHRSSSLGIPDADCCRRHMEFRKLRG
Test: Primary assay of HPK1 enzymatic activity inhibition (ADP-Glo luminescence)
Conditions: recombinant HPK1, MBP substrate, 1 hour at room temperature
recorded-metric: IC50

Please review the following examples before continuing.
[[record]]
molecule = "CN(C)Cc1noc(-c2cnc(Nc3ccc4c(c3)CCCS4(=O)=O)nc2N[C@H](CO)c2ccccc2)n1 [Compound 583]"
assayed_system = "recombinant HPK1 protein (Homo sapiens, UniProt Q92918)"
value = "< 50 nM"

[[record]]
molecule = "CCOC(=O)c1cnc(Nc2ccc(C(=O)N(C)C)c(OC)c2)nc1N[C@H](CO)c1ccccc1 [Compound 247]"
assayed_system = "recombinant HPK1 protein (Homo sapiens, UniProt Q92918)"
value = "200 to 500 nM"

[[record]]
molecule = "CCOC(=O)c1cnc(Nc2ccc(C(=O)NC)c(Cl)c2)nc1N[C@H](CO)c1ccccc1 [Compound 560]"
assayed_system = "recombinant HPK1 protein (Homo sapiens, UniProt Q92918)"
value = "50 to 200 nM"

[[record]]
molecule = "CCOC(=O)c1cnc(Nc2ccc3c(c2)CNC3=O)nc1N[C@H](CO)c1ccccc1 [Compound 565]"
assayed_system = "recombinant HPK1 protein (Homo sapiens, UniProt Q92918)"
value = "< 50 nM"

[[record]]
molecule = "CCOC(=O)c1cnc(Nc2ccc(C(N)=O)c(C)c2)nc1N[C@H](CO)c1ccccc1 [Compound 10]"
assayed_system = "recombinant HPK1 protein (Homo sapiens, UniProt Q92918)"
value = "50 to 200 nM"


Print recombinant HPK1 protein (Homo sapiens, UniProt Q92918) IC50 for C=Cc1noc(-c2cnc(Nc3ccc4c(c3)CCN(COCC[Si](C)(C)C)C4=O)nc2N[C@H](CO)c2ccccc2)n1 [Compound 580] . < 50 nM

Print recombinant HPK1 protein (Homo sapiens, UniProt Q92918) IC50 for CCNC(=O)c1cnc(Nc2ccc3c(c2)CCN(C)C3=O)nc1N[C@H](CO)c1ccccc1 [Compound 119] . < 50 nM

* * *

system: Jurkat cells; experiment: IL-2 release Jurkat assay (anti-CD3/anti-CD28 stimulation, IL-2 ELISA); format: cell-based, human; conditions: Table C: Jurkat, 6 μM of tested compounds, activation with 400 ng/mL aCD3 + 400 ng/mL aCD28, 24 hours; stimulated vehicle = A
recorded-metric: IL-2, pg/mL stimulated

[[record]]
compound = "COCCNC(=O)c1cnc(Nc2ccc(S(C)(=O)=O)c(F)c2)nc1N[C@H](CO)c1ccccc1 [Compound 401]"
assayed_system = "Jurkat cells"
recorded_metric = "IL-2, pg/mL stimulated"
value = "A (IL-2<50 pg/mL)"

[[record]]
compound = "CCOC(=O)c1cnc(Nc2ccc(S(C)(=O)=O)c(OC)c2)nc1N[C@H](CO)c1ccccc1 [Compound 300]"
assayed_system = "Jurkat cells"
recorded_metric = "IL-2, pg/mL stimulated"
value = "A (IL-2<50 pg/mL)"

[[record]]
compound = "CCOC(=O)c1cnc(Nc2ccc(S(=O)(=O)CC)cc2)nc1N[C@H](CO)c1ccccc1 [Compound 168]"
assayed_system = "Jurkat cells"
recorded_metric = "IL-2, pg/mL stimulated"
value = "A (IL-2<50 pg/mL)"


* * *

biological target: recombinant HPK1 protein (Homo sapiens, UniProt Q92918); assay: Primary assay of HPK1 enzymatic activity inhibition (ADP-Glo luminescence); details: recombinant HPK1, MBP substrate, 1 hour at room temperature
pIC50: −log10 of the molar value.
recorded-metric: pIC50

Please review the following examples before continuing.
[[record]]
smiles_str = "Cc1cc(Nc2ncc(C(=O)NCC(F)(F)F)c(N[C@H](CO)c3ccccc3)n2)ccc1S(C)(=O)=O"
value = "> 7.30"

[[record]]
smiles_str = "COc1cccc([C@@H](CO)Nc2nc(Nc3ccc4c(c3)CCNC4=O)ncc2-c2nc(C)no2)c1"
value = "> 7.30"

[[record]]
smiles_str = "CCOC(=O)c1cnc(Nc2ccc(S(C)(=O)=O)c(F)c2)nc1N[C@H](C)c1ccccc1"
value = "≤ 6.30"

[[record]]
smiles_str = "CS(=O)(=O)c1cnc(Nc2ccc3c(c2)CCNC3=O)nc1N[C@H](CO)c1ccccc1"
value = "> 7.30"

[[record]]
smiles_str = "CC(C)NC(=O)c1cnc(Nc2ccc(F)c(-c3ccccc3)c2)nc1N[C@H](CO)c1ccccc1"
value = "6.30 to 6.70"

[[record]]
smiles_str = "CS(=O)(=O)c1ccc(Nc2ncc(C(=O)OCCO)c(N[C@H](CO)c3ccccc3)n2)cc1F"
value = "> 7.30"


Lab note: next molecule to report on.
Tell me its pIC50 given CNC(=O)c1cnc(Nc2ccc(F)c(-c3ccccc3)c2)nc1N[C@H](CO)c1ccccc1 as the entry. 6.70 to 7.30

* * *

target: recombinant HPK1 protein (Homo sapiens); assay: Primary assay of HPK1 enzymatic activity inhibition (ADP-Glo luminescence); details: recombinant HPK1, MBP substrate, 1 hour at room temperature
Parameter: IC50. Scope: all listed entries.

Please review the following examples before continuing.
[[record]]
smiles_str = "CCNC(=O)c1cnc(Nc2ccc(F)c(-c3ccccc3)c2)nc1N[C@H](CO)c1ccccc1"
recorded_metric = "IC50"
value = "200 to 500 nM"

[[record]]
smiles_str = "Cn1cc(-c2cnc(Nc3ccc4c(c3)CCNC4=O)nc2N[C@H](CO)c2ccccc2)cn1"
recorded_metric = "IC50"
value = "< 50 nM"

[[record]]
smiles_str = "CNC(=O)c1cnc(Nc2ccc(C(F)(F)F)c(Cl)c2)nc1N[C@H](CO)c1ccccc1"
recorded_metric = "IC50"
value = "≥ 500 nM"


Tell me its IC50 given CCOC(=O)c1cnc(N(c2ccc3c(c2)CCCNC3=O)c2ncc(C(=O)OCC)c(N[C@H](CO)c3ccccc3)n2)nc1N[C@H](CO)c1ccccc1 as the entry. 50 to 200 nM

Tell me its IC50 given CCOC(=O)c1cnc(Nc2cccc(S(C)(=O)=O)c2)nc1N[C@H](CO)c1ccccc1 as the entry. 200 to 500 nM

Tell me its IC50 given CS(=O)(=O)c1ccc(Nc2ncc(C#N)c(N[C@H](CO)c3ccccc3)n2)cc1F as the entry. ≥ 500 nM

Tell me its IC50 given CCOC(=O)CCCCCc1nnc(-c2cnc(Nc3ccc(S(C)(=O)=O)c(C)c3)nc2N[C@H](CO)c2ccccc2)o1 as the entry. 50 to 200 nM

* * *

Molecular target: recombinant HPK1 protein (Homo sapiens)
Sequence (Q92918 1-346 limits assumed): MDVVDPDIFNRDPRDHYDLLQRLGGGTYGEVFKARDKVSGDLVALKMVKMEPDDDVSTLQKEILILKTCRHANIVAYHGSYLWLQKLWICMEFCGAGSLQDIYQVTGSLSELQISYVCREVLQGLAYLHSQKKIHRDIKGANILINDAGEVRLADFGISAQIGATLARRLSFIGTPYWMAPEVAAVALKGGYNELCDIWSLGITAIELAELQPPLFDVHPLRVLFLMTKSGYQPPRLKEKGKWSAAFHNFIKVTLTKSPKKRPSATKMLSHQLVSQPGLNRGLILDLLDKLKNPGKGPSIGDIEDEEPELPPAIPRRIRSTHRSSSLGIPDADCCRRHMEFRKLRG
Test: Primary assay of HPK1 enzymatic activity inhibition (ADP-Glo luminescence)
Details: recombinant HPK1, MBP substrate, 1 hour at room temperature
pIC50: −log10 of the molar value.
Parameter: pIC50. Scope: all listed entries.

Please review the following examples before continuing.
[[record]]
smiles_str = "CCOC(=O)c1cnc(Nc2ccc(S(C)(=O)=O)cc2OC)nc1N[C@H](CO)c1ccccc1"
assayed_system = "recombinant HPK1 protein (Homo sapiens)"
value = "≤ 6.30"

[[record]]
smiles_str = "CCOC(=O)c1cnc(Nc2ccc(S(C)(=O)=O)cc2)nc1N[C@H](CO)c1ccccc1"
assayed_system = "recombinant HPK1 protein (Homo sapiens)"
value = "> 7.30"

[[record]]
smiles_str = "COCCNC(=O)c1cnc(Nc2ccc(S(C)(=O)=O)c(F)c2)nc1N[C@H](CO)c1ccccc1"
assayed_system = "recombinant HPK1 protein (Homo sapiens)"
value = "6.70 to 7.30"


Lab note: next compound to report on.
Tell me its pIC50 given CCOC(=O)c1cnc(Nc2ccc3c(c2)CCN(C)C3=O)nc1N[C@H](CO)c1ccccc1 as the entry. > 7.30
